- MEASURED TARGET: T1, human EGFRvIII protein on the surface of U87MG-hEGFRvIII cells (human, UniProt P00533 25-1210)
- T1 construct: whole, on cells; Stably transfected U87MG cells; also called mutant EGFRvIII protein; U87MG-EGFRvIII
- ASSAY REMARKS: FACS on U87MG-hEGFRvIII cells
A collection of binders and their measured EC50
MEASURE NAME: EC50 (nM)

INSERT INTO results (binder, measure_name, endpoint_value) VALUES
  ('Murine anti-43H6 (antibody, V domains shown, Mouse hybridoma antibody; also called 43H6A1) VH: INAEYAGGPGLVKPSQSLSLTCTVTDYSITSDYAWNWIRQFPGNKLEWMGYISYSGNTNYNPSLKSRISITRDTSKNQFFLQLNSVTTEDTATYYCARLGRGFAYWGQGTLVTVSA VL: DILMTQSPSSMSVSLGDTVSITCHASQDINSNIGWLQQKPGTSFKGLIYHGRNLEDGVPSRFSGSGSGEDYSLTISSLESEDFADYYCVQYAHFPPTFGAGTKLELK', 'EC50', 4),
  ('Murine anti-51G7 (antibody, V domains shown, Mouse hybridoma antibody; also called 51G7C2) VH: EVQLQQSGAELVKPGASVKLSCTASGFNIKDFYIHWVKQRTEQGLEWIGRIDPEDGETKYAPKFQDKATIIADTSSNTAYLQLSSLTSEDTAVYYCASSSYYGNNYWGQGTTLTVSS VL: QIVLTQSPAIMSASPGEKVTLTCSASSSVSSNYLYWYQQKPGSSPKLWIYSTSNLASGVPARFSGSGSGTSYSLTISSMEAEDAASYFCHQWSSFPYTFGGGTKLEIK', 'EC50', 26.2),
  ('Murine anti-59G3 (antibody, V domains shown, Mouse hybridoma antibody; also called 59G3F12) VH: DVQLQESGPGLVKPSQSLSLTCSVTGYSITSGYYWHWIRQFPENKLEWMGYISYDGSNIYNPSLKNRISITRDTSKNQFFLKLNSVTTEDTATYYCAINSDYALDYWGQGTSVTVSS VL: QIVLTQSPAIMSASPGEKVTMTCSASSSVSYMYWYQQKPGSSPRLLIYDTSNLASGVPVRFSGSGSGTSYSLTISRMEAEDAATYYCQQWSSYSLTFGAGTKLELK', 'EC50', 40.9);
